Quick list: O.D.450 (normalized) per entry.
target: tooth pellicle (thin film derived from salivary glycoproteins, formed in a human mouth) (human); assay: phage ELISA on 30 min pellicle-coated bovine enamel, anti-M13-HRP, normalized to DenP3; no-phage control 0.094
Just the number, please, no unit attached.

As a guide, the following entries are already answered.
[
  {
    "binder": "NQQMKLVPQHWHRAQP [DenP119]",
    "O.D.450 (normalized)": 1.05
  },
  {
    "binder": "QFNQTSHSFMHGTSGYVPGK [DenP105]",
    "O.D.450 (normalized)": 0.47
  },
  {
    "binder": "GVHQYSRPTVPSYLWTSGQH [DenP103]",
    "O.D.450 (normalized)": 0.879
  }
]

Specify O.D.450 (normalized) for GYGQYVSQQTWAHSNK [DenP115] and stop. 0.501
